Attribution: patent US20250026723A1

# ASSAY NAME: in vitro
# EXPERIMENTAL CONTEXT: human, Caco-2
EXPERIMENTAL READOUT: Papp B→A at 10 μM (×10⁻⁶ cm/s)
Give just the numeric value; ×10⁻⁶ cm/s need not be written.

Which Papp B→A at 10 μM is reported for this compound? COC(=O)[C@@H](C)CS/C(=N\S(=O)(=O)c1ccc(C(F)(F)F)cc1)N1CC(c2ccccc2)C(c2ccc(Cl)cc2)=N1 (stereo partly shown) 0.0121

* * *

# MEASURED TARGET: cannabinoid receptor 1 (CB1R) (Homo sapiens (Human))
# ASSAY NAME: CB1R binding affinity (inhibition constant Ki)
EXPERIMENTAL READOUT: Ki (nM)
Give just the numeric value; nM need not be written.

Which Ki is reported for this molecule? COC(=O)[C@@H](C)CS/C(=N\S(=O)(=O)c1ccc(C(F)(F)F)cc1)N1CC(c2ccccc2)C(c2ccc(Cl)cc2)=N1 (stereo partly shown) 7.7
